All values here come from PubChem BioAssay AID1159580.

procedure text: chemical genetic growth profiling, strain panel (AID 1159580);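 also: tested at 20 µM; growth read once vehicle control cultures reached saturation at 30 °C; 1 = growth at the plate median or of vehicle wells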
measurement parameters: S. cerevisiae deletion strains, growth OD, locus YGL078C, strain dbp3, stronger effect = lower value
About 2,000 (36%) of roughly 5,500 compounds were called active. Another 18% or so got no clear call; they are omitted. The list shows a part of the results. *1 amine or outer side, *2 acyl side, *3 side chain or, on linkers, in order; H or OH if unused. Where a SMILES comes first, the peptide text is derived from it. Bridges are numbered along the chain shown (N, C = ends). [ ]: non-standard residue; d: D form. The star is where a group is joined. ξ: configuration not given here. ΔAla(E,3-NHCONH2) = NC(=O)N/C=C(/N)C(=O)O; X2 = NC1=NCCC(C(N[*:1])C(=O)[*:2])N1; ξβ3hOrn = NCCCC(N)CC(=O)*; Dap = NC[CH](N)C(=O)O
metric name: normalized growth
// return a plain number; no unit text

Q. Complete the entry with normalized growth for CCCCCCCCCCCCCCCCCCOCC(O)CO (centres undefined)
A. 1.02

Q. Give a short answer stating reported normalized growth for CC(=O)c1cc2c(cc1O)OC(C)(C)C=C2 .
A. 1.03

Q. Respond only with normalized growth recorded for NCCCC(N)CC(=O)NCC1NC(=O)C(CO)NC(=O)C(N)CNC(=O)C(C2CCN=C(N)N2)NC(=O)/C(=C\NC(N)=O)NC1=O (stereo not drawn) (H-[Dap]S[Dap](ξβ3hOrn)[ΔAla(E,3-NHCONH2)][X2]; lactam 1-C; configuration not given here)
A. 1.02

Q. Indicate the recorded normalized growth value for this molecule: COc1cc(NS(=O)(=O)c2ccc(N)cc2)ncn1
A. 0.977

----------
procedure text: chemical genetic growth profiling, strain panel (AID 1159580)
measurement parameters: S. cerevisiae deletion strains, growth OD, locus YJL187C, strain SWE1 (second series)
Screen size: about 5,500 compounds; about 2,000 (36%) were called active. Not shown: some 18% with an inconclusive outcome. Cut-off read from the data, not from the text of the source: active = normalized growth mostly below about 0.91 (no sharp cut-off); inconclusive = no clear call, values can overlap the other calls; inactive = mostly above about 0.92. Some of the results follow.
Lab note: assign the record to one of y = active, n = inactive

Q. Hey, what did the test say about CCCCCCCCCCCCCCCCCCOCC(O)CO (stereo not given) ?
A. n

Q. Lab log entry: C[C@]12CCC(=O)C=C1CCC1C2C(=O)C[C@@]2(C)C1CC[C@]2(O)C(=O)CO (stereo not given in full) — outcome as called in the assay?
A. n

Q. // return assay outcome for CCc1cccc2c3c([nH]c12)C(CC)(CC(=O)O)OCC3 (stereo not given)
A. n

Q. Write down the call the test reported for this compound. Item: C#CC1(O)CCC2C3CCC4=CC(=O)CCC4(C)C3CCC21C (stereo not given)
A. n

Q. I would be grateful if you could indicate the recorded call for C[C@]12CCC(=O)C=C1CCC1C2[C@@H](O)C[C@@]2(C)C1CC[C@]2(O)C(=O)COC(=O)CCC(=O)O (stereo not given in full) .
A. n

Q. Assay result, entry CC1(C)C(=O)[C@@H]2O[C@@H]2[C@@]2(C)C1CC(=O)[C@]1(C)C2CC[C@@]2(C)[C@H](c3ccoc3)OC(=O)[C@H]3O[C@]321 (stereo not given in full) — outcome?
A. n

Q. Per the records of this test, what outcome belongs to Cc1c(NC(=O)c2cccnc2)c(=O)n(-c2ccccc2)n1C ?
A. n

Q. Tell me the recorded outcome of this test for C#C[C@]1(O)CCC2C3CCC4=Cc5oncc5C[C@]4(C)C3CC[C@@]21C (stereo not given in full) .
A. n

Q. Test call for this compound, please: O=c1oc2c(O)c(O)cc3c(=O)oc4c(O)c(O)cc1c4c23
A. y

Q. Returns: the outcome recorded for Cc1cc(=O)n(-c2ccccc2)n1C in this assay.
A. n

----------
procedure text: chemical genetic growth profiling, strain panel (AID 1159580);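 also: tested at 20 µM; growth read once vehicle control cultures reached saturation at 30 °C; 1 = growth at the plate median or of vehicle wells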
measurement parameters: S. cerevisiae deletion strains, growth OD, locus YGL167C, strain pmr1
Screen size: about 5,500 compounds; about 2,000 (36%) were called active. Inconclusive results (about 18%) are left out. No stated cut-off is given here; in the data, active means normalized growth mostly below about 0.91 (no sharp cut-off); inconclusive means no clear call, values can overlap the other calls; inactive means mostly above about 0.92. This is one part of the list.
Assign a class; possible classes are Yes for active, No for inactive

Q. Call for entry COc1cc(-c2coc3cc(O[C@@H]4O[C@H](CO)[C@@H](O)[C@H](O)[C@H]4O)c(OC)c(O)c3c2=O)cc(O)c1OC :
A. No

Q. Could you please tell me the result logged for CC(=O)O[C@@H]1CC[C@]2(C)C3CC[C@]4(C)C(=O)CCC4C3CC[C@H]2C1 (stereo not given in full) in this assay?
A. No

Q. How did this test come out for CC(NCCC(c1ccccc1)c1ccccc1)c1ccccc1 (stereo not given) ?
A. No

Q. Could you kindly confirm the outcome this assay logged for CC(=O)O[C@H]1CC[C@]2(C)C3CC[C@@]4(C)C(CC5O[C@@]6(CCC(C)CO6)[C@@H](C)C54)C3CC[C@@H]2C1 (stereo not given in full) ?
A. No

Q. Please let me know the test result on file for COc1ccc(-c2oc3ccccc3c(=O)c2O)cc1OC .
A. Yes

Q. Record lookup: outcome of this test for C[C@]12CCC3C(CC[C@H]4C[C@H](OS(=O)(=O)O)CC[C@]34C)C1CCC2=O (stereo not given in full) ?
A. No

Q. Could you kindly confirm the outcome this assay logged for COc1cc(/C=C/C(=O)N2CCC=CC2=O)cc(OC)c1OC ?
A. No

Q. GET /call?item= O=C(O)[C@H](O)[C@@](O)(Cc1ccc(O)cc1)C(=O)O returns the recorded outcome of this test.
A. No

Q. Answer briefly: the call reported for CC(=O)OCC(=O)[C@@]12OC3(CCCC3)O[C@@H]1CC1C3CCC4=CC(=O)C=C[C@]4(C)[C@@]3(F)[C@@H](O)C[C@@]12C (stereo not given in full) in this assay.
A. No

Q. Please indicate how the test categorized CNCC[C@@H](Oc1ccccc1)c1ccccc1 .
A. No

----------
procedure text: chemical genetic growth profiling, strain panel (AID 1159580);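 also: tested at 20 µM; growth read once vehicle control cultures reached saturation at 30 °C; 1 = growth at the plate median or of vehicle wells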
measurement parameters: S. cerevisiae deletion strains, growth OD, locus YLR357W, strain rsc2
Screen size: about 5,500 compounds; about 2,000 (36%) were called active. Inconclusive results (about 18%) are left out. Rule as the data show it: active = normalized growth mostly below about 0.91 (no sharp cut-off); inconclusive = no clear call, values can overlap the other calls; inactive = mostly above about 0.92. The list shows a part of the results. Where a SMILES comes first, the peptide text is derived from it. Bridges are numbered along the chain shown (N, C = ends). [ ]: non-standard residue; d: D form. The star is where a group is joined. Octanoyl(6-Me) = CCC(C)CCCCC(=O)*; Dab = NCC[CH](N)C(=O)O
API: response.call in label 1 = active, label 0 = inactive

Q. # lookup: test call for CCCCCCCCCCCCCCCCCCOCC(O)CO (configuration not stated)
A. label 0

Q. I would be grateful if you could indicate the recorded call for CN(C)CCc1c[nH]c2ccc(CS(=O)(=O)N3CCCC3)cc12 .
A. label 0

Q. # outcome recorded in this test, key = CC(=O)OCC(=O)[C@@]12OC3(CCCC3)O[C@@H]1CC1C3CCC4=CC(=O)C=C[C@]4(C)[C@@]3(F)[C@@H](O)C[C@@]12C (some centres not stated)
A. label 0

Q. Hi team, can someone confirm the assay call for CN(C)CCc1c[nH]c2ccc(C[C@H]3COC(=O)N3)cc12 ?
A. label 0

Q. I'd appreciate the recorded outcome for CN1CCN(CCCN2c3ccccc3Sc3ccc(C(F)(F)F)cc32)CC1 from this test.
A. label 1

Q. Tell me the assay call for CN1CCN(CCC=C2c3ccccc3Sc3ccc(S(=O)(=O)N(C)C)cc32)CC1 please.
A. label 0

Q. What classification did CCC(C)CCCCC(=O)NC(CCN)C(=O)NC(C(=O)NC(CCN)C(=O)NC1CCNC(=O)C(C(C)O)NC(=O)C(CCN)NC(=O)C(CCN)NC(=O)C(CC(C)C)NC(=O)C(Cc2ccccc2)NC(=O)C(CCN)NC1=O)C(C)O (configuration not stated) ({Octanoyl(6-Me)}-[Dab]T[Dab][Dab][Dab]FL[Dab][Dab]T; lactam 4-C; configuration not given here) end up with in this test?
A. label 0

----------
procedure text: chemical genetic growth profiling, strain panel (AID 1159580);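 also: tested at 20 µM; growth read once vehicle control cultures reached saturation at 30 °C; 1 = growth at the plate median or of vehicle wells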
measurement parameters: S. cerevisiae deletion strains, growth OD, locus YKL190W, strain CNB1, stronger effect = lower value
The whole screen tested about 5,500 compounds, of which about 2,000 (36%) were called active. Not shown: some 18% with an inconclusive outcome. The list shows a part of the results.
metric name: normalized growth
Lab note: jot the number down without any unit.

Q. Return normalized growth for the following compound: NC(N)=NC(N)=Nc1ccccc1
A. 1

Q. // fetch normalized growth given entry COc1ccc2c(c1OC)OC[C@@H](c1ccc(OC)c(OC)c1OC)C2
A. 1.01

Q. Determine from records and report normalized growth for O=C(O)c1nccnc1C(=O)O
A. 1.01

Q. Return reported normalized growth. Input compound: COc1cccc(C(=O)N/N=C(/C)c2ccccc2O)c1
A. 0.802

Q. Please look at this compound and report its normalized growth: Cc1cccc(C(=O)c2ccccc2C(=O)O)c1
A. 0.997

Q. Provide normalized growth value for the following compound: CC(C)(C)c1ccc(CSc2nc(N)cc(=O)[nH]2)cc1
A. 1.02

Q. Give a short answer stating reported normalized growth for CC(=O)O[C@H]1CC[C@]2(C)C3CC[C@@]4(C)C(CC5O[C@@]6(CCC(C)CO6)[C@@H](C)C54)C3CC[C@@H]2C1 (stereo not given in full) .
A. 1

Q. Tell us which normalized growth value is on record for CC(=O)O[C@@H]1CC[C@]2(C)C3CC[C@]4(C)C(=O)CCC4C3CC[C@H]2C1 (stereo not given in full)
A. 0.973

Q. Quickly give me recorded normalized growth for CC(=O)OCC(=O)[C@@]1(O)CCC2C3CC[C@@H]4C[C@H](OC(C)=O)CC[C@]4(C)C3C(=O)C[C@@]21C (stereo not given in full)
A. 0.997

Q. Hello, please tell me recorded normalized growth for this one: CC(=O)O[C@H]1CC[C@]2(C)C3CC[C@@]4(C)C(CC5O[C@@]6(CCC(C)CO6)[C@@H](C)C54)C3CC[C@H]2C1 (stereo not given in full)
A. 0.999
